- Experiment summary: Absorption of amorphous solid dispersion HP-55 (1:3), rat pharmacokinetics (PK) method (Example 12)
- Format: in vivo
- Test context: whole blood, Wistar rats, male, IV, 1 mg/kg, solution in DMSO:10% HP-β-CD PBS (1:9)
Property label: AUC(0-inf) (ng·h/mL)
Numbers only; they are read as ng·h/mL.

Query `O=C(c1cc(Cn2c(=O)[nH]c(=O)c3c(F)cccc32)ccc1F)N1CCN(c2ncccn2)CC1` yields AUC(0-inf) of 365

====

- Experiment summary: Bioavailability after oral administration of the crystalline compound
- Test context: mouse, in vivo, mice, simple mixture of crystalline compound with surfactants (Tween 80) and emulsifiers (methylcellulose)
Property label: bioavailability

`O=C(c1cc(Cn2c(=O)[nH]c(=O)c3c(F)cccc32)ccc1F)N1CCN(c2ncccn2)CC1` has a reported bioavailability of < 5%
